# assayed_system: Estrogen receptor beta (Homo sapiens, UniProt Q92731)
# Sequence (Q92731 whole entry): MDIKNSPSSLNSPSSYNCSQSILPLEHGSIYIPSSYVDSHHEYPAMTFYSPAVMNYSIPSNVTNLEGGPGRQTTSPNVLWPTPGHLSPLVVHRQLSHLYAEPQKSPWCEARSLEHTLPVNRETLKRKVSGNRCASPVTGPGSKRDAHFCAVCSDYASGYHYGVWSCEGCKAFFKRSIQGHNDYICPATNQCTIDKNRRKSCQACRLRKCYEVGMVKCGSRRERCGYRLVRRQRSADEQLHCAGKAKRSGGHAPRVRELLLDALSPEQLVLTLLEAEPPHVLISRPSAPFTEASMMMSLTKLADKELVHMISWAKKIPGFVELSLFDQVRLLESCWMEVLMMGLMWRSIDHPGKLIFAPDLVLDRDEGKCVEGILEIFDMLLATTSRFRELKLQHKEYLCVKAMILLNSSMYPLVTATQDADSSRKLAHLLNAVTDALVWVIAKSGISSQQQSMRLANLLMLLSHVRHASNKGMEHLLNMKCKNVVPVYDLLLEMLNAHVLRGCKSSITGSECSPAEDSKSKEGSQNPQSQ
Just so you know, the groups by EC50 go like this: 1 (below 20 nM), 2 (20 nM to below 200 nM), 3 (200 nM or more)

molecule: CC1=CC[C@@]2(CO)CO[C@@H](c3ccc(O)c(F)c3)[C@@H]1C2 (racemic)
assigned_class: 2

molecule: CC1=CC[C@@]2(CO)CO[C@@H](c3ccc(O)c(O)c3)[C@@H]1C2 (racemic)
assigned_class: 3

molecule: CC1=CC[C@@]2(CO)CO[C@@H](c3ccc(O)cc3Cl)[C@@H]1C2 (stereo in doubt; (+)-25)
assigned_class: 2

molecule: CC1=CC[C@@]2(CO)CO[C@@H](c3ccc(O)cc3F)[C@@H]1C2 (stereo in doubt; (-)-30)
assigned_class: 1

molecule: CC1=CC[C@@]2(O)CO[C@@H](c3ccc(O)cc3)[C@@H]1C2(C)C (racemic)
assigned_class: 2

molecule: CC1=CC[C@@]2(CO)CO[C@@H](c3ccc(O)cc3C)[C@@H]1C2 (racemic)
assigned_class: 2

molecule: CC1=CC[C@@]2(CO)CO[C@@H](c3cc(C)c(O)c(C)c3)[C@@H]1C2 (racemic)
assigned_class: 3

molecule: CC1=CC[C@@]2(CO)CO[C@@H](c3ccc(O)c(F)c3)[C@]1(C)C2 (racemic)
assigned_class: 1

molecule: CC1=CC[C@]2(O)C[C@H]1[C@H](c1ccc(O)c(F)c1)OC2(C)C (racemic)
assigned_class: 1

molecule: CC1=CC[C@@]2(CO)CO[C@@H](c3ccc(O)cc3Cl)[C@@H]1C2 (racemic)
assigned_class: 1

molecule: CC1=CC[C@@]2(CO)CO[C@@H](c3ccc(O)c(F)c3)[C@@H]1C2 (stereo in doubt; (-)-28)
assigned_class: 2

molecule: CC1=CC[C@@]2(CO)CO[C@@H](c3ccc(O)cc3F)[C@@H]1C2 (racemic)
assigned_class: 1

molecule: CC1=CC[C@]2(O)C[C@H]1[C@H](c1ccc(O)cc1)OC2(C)C (racemic)
assigned_class: 1

molecule: CC1=CC[C@@]2(CO)CO[C@@H](c3ccc(O)c(F)c3)[C@@H]1C2 (stereo in doubt; (+)-27)
assigned_class: 2

molecule: CC1=CC[C@@]2(CO)CO[C@@H](c3ccc(O)cc3F)[C@]1(C)C2 (racemic)
assigned_class: 1

molecule: CC1=CC[C@]2(O)C[C@H]1[C@H](c1ccc(O)cc1Cl)OC2(C)C (racemic)
assigned_class: 1

molecule: CC1=CC(C)(C)[C@@]2(O)CO[C@@H](c3ccc(O)cc3Cl)[C@@H]1C2 (racemic)
assigned_class: 2

molecule: CC1=CC[C@@]2(CO)CO[C@@H](c3ccc(O)c(Br)c3)[C@@H]1C2 (racemic)
assigned_class: 3

molecule: CC1=CC[C@@]2(CO)CO[C@@H](c3ccc(O)cc3Cl)[C@]1(C)C2 (racemic)
assigned_class: 2

molecule: CC1=CC[C@]2(O)C[C@H]1[C@H](c1ccc(O)cc1F)OC2(C)C (racemic)
assigned_class: 1

molecule: CC1=CC[C@@]2(CO)CO[C@@H](c3ccc(O)cc3Cl)[C@@H]1C2 (stereo in doubt; (-)-26)
assigned_class: 1

molecule: CC1=CC[C@@]2(CO)CO[C@@H](c3ccc(O)cc3)[C@]1(C)C2 (racemic)
assigned_class: 2

molecule: CC1=CC[C@@]2(CO)CO[C@@H](c3ccc(O)cc3O)[C@@H]1C2 (racemic)
assigned_class: 3

molecule: CC1=CC[C@@H]2C[C@H]1[C@H](c1ccc(O)cc1)OC2(C)C (stereo in doubt; (+)-31)
assigned_class: 3

molecule: COc1cc([C@@H]2OC[C@]3(CO)CC=C(C)[C@H]2C3)ccc1O (racemic)
assigned_class: 3

molecule: CC1=CC[C@@H]2C[C@H]1[C@H](c1ccc(O)c(C)c1)OC2(C)C (stereo in doubt; (+)-32)
assigned_class: 3

molecule: CC1=CC[C@@]2(CO)CO[C@@H](c3ccc(O)c(C)c3)[C@@H]1C2 (racemic)
assigned_class: 3

molecule: CC1=CC[C@@]2(CO)CO[C@@H](c3ccc(O)cc3F)[C@@H]1C2 (stereo in doubt; (+)-29)
assigned_class: 2

molecule: CC1=CC(C)(C)[C@@]2(O)CO[C@@H](c3ccc(O)cc3)[C@@H]1C2 (racemic)
assigned_class: 2
